- Tested on: five selected human bladder cancer cell lines
- test: In vitro 2D assay, CellTiter-Blue Cell Viability Assay, mean over panel
- Type: cell-based
- measurement_context: 96 h, read-out: Geometric Mean Absolute IC50 values
measured_endpoint: pIC50
In simple prose, pIC50 is minus the logarithm base ten of a concentration in moles per litre.

So what's the measured pIC50 for this one? CC(C)N1CCN(c2ccc(OC[C@@H]3CO[C@@](Cn4cncn4)(c4ccc(Cl)cc4Cl)O3)cc2)CC1 (racemic)
4.40
